Quick reference for Neut IC50 (µg/ml) subtype B among some binders
Biological target: RSV F protein of subtype B (18537) on recombinant mKate-RSV virus (Respiratory syncytial virus subtype B …, UniProt P13843 26-574)
Experiment: cell-based or functional assay
# value in µg/mL; strip the unit string

Some entries whose results are on file:
binder="ADI-18921 (antibody, V domains shown, full-length IgG from yeast) VH: QVQLVQSGSEVKKPGASVRLSCKVAGYSLSELSMHWVRQSPGKGLEWLGAFDHEDAEAIYAPRFQGRITMTADTSTDTAYMELSSLRSEDTAVYYCATPTPVGATDYWGQGTLVTVSS VL: DIQMTQSPSSLSASVGDRVTITCRASQSISSYLNWYQQKPGKAPKLLIYAASSLQRGGPSRFSGSGSGTDFTLTISSLQPEDFATYYCQQSYIIPYTFGQGTKVDIK" result_unit=µg/mL readout_number=1.17
binder="ADI-18893 (antibody, V domains shown, full-length IgG from yeast; also called Antibody Number 248; Ab # 248) VH: EVQLLESGGGLVKPGGSLRLSCVASGFTFSSYNINWVRQAPGKGLEWVSSISGGSNYIDYADSVKGRFTISRDNAKNSLYLQMNNLRAEDTAVYYCARLGYGGNPELDYWGQGTLVTVSS VL: QSVLTQPPSVSGAPGQRVTISCTGSSSNIGAGYDVHWYQQRPGTAPKLLIYANNNRPSGVPDRFSGSKSGTSASLAITGLQAEDEADYYCQSYDLSLSSSRVFGGGTKLTVL" result_unit=µg/mL readout_number=0.182

Q) Quickly give me recorded Neut IC50 (µg/ml) subtype B for ADI-18935 (antibody, V domains shown, full-length IgG from yeast) VH: QVQLQESGPGLVKPSQTLSLTCTVSGRLLSSGDYYWSWIRQSPGRGLEWIGYVYHSGTTSYNPSLKSRITMTVDTSKNQFNLRLTSVTAADTAVYYCARDLGYSSSSPAFYYGIDFWGPGTMVTVSS VL: EIVLTQSPATLSLSPGQRATLSCRASQSVGNYLAWYQQKPGQAPRLLIYDASNRVTGIPARFSGSGSGTDFTLTISRLESEDFAVYYCQQRSNGVLTFGGGTKVDIK
A) 0.355
